Assay: Biodistribution of CorA to organs/tissues of CD-1 mice (LC-MS/MS)
Format: in vivo
Settings: female, CD-1, mouse; brain; 100 mg/kg SC
observable: Cmax (ng/g)

>>> readout_number("C/C=C/C/C=C(\\C)C(O)CC/C(C)=C/C=C(\\C)C(=O)c1c(O)cc([C@H](C)CC/C=C/NC(=O)OC)oc1=O (stereo partly shown)")
150

###

Test: Pharmacokinetics of CorA in plasma of CD-1 mice
Format: in vivo
Details: female, mouse; plasma; 30 mg/kg IP (BID); CD-1 mice; mean ± SD
observable: CL/F (mL/min/kg)

>>> readout_number("C/C=C/C/C=C(\\C)C(O)CC/C(C)=C/C=C(\\C)C(=O)c1c(O)cc([C@H](C)CC/C=C/NC(=O)OC)oc1=O (stereo partly shown)")
0.89
